- test.method.notes: yeast display, Sf9 membrane polyspecificity reagent, FACS + sequencing; frameworks hold sequencing errors
test.readout: polyreactivity (PSR sort gate)

monomer_sequence=QVQLVESGGGLVQAGGSLRLSCAASGFTIIYNAMGWYSQAPGKERELVAAISSGGSTYYADSVKGRFTISRDNAKNTVYFQMNSLKPVDTAVYYCNADVGFFNSGYEDSDYWGQGTQVTVSS test_readout="polyreactivity (PSR sort gate)" observed_measurement="low polyreactivity"
monomer_sequence=QVQLVESGGGLVQAGGSLRLSCAASGFTSGYYAMGWYRQAPGKESELVAAIDWSDGGTYYADSVKGRFTISRDNAKNTVYLQMNSLKPEDTAVYYCATVRYVQITRDDYWGQGTQVTVSS test_readout="polyreactivity (PSR sort gate)" observed_measurement="low polyreactivity"
monomer_sequence=QVQLVESGGGLVQAGGSLRLSCAASGNILLFNAMGWYRQAPGKERELVATINQSGGRTYYADSVKGRFTISRDNAKNTVYLQMNSLKPEDTAVYYCAATYVYWTWGYDYWGQGTLVTVSS test_readout="polyreactivity (PSR sort gate)" observed_measurement="low polyreactivity"
monomer_sequence=QVQLVESGGGLVQAGGSLRLSCASSGLTLQYYAMGWYRQAPGKERELVAAITYSGGSTYYADSVKGRFTISRDNAKNTVYLQRNSLKPEDTGVYYCAKVPVRSGGTLYDYWGQGTQVTVSS test_readout="polyreactivity (PSR sort gate)" observed_measurement="low polyreactivity"
monomer_sequence=QVQLVESGGGLVQAGGSLRLSCAASGGTFQRYVMGWYRQAPGKERELVAAISRSGSTYADSVKGRFTISRDNAKNTVYLQMNSLKPEDTAVYYCNVVRYYRYYLHGYDYWGQGTQVTVSS test_readout="polyreactivity (PSR sort gate)" observed_measurement="high polyreactivity"
monomer_sequence=QVQLVESGGGLVQAGGSLRLSCAASGITFRYYAMGWYRQAPGKERELVAAISSGGGTYYADSVKGRFTISRDNAKNTVYLQMNSLKPEDTAVYYCNVLRLYPSMDYWGQGTQVTVSS test_readout="polyreactivity (PSR sort gate)" observed_measurement="high polyreactivity"
monomer_sequence=QVQLVESGGGLVQAGGSLRLSCAASGYTIRYYAMGSYRQAPGKERELVADISYSGGRTYYADSVKGRITISRDNAKNTVDLLMNSLKPEDSAVYYSNARGGRRAYNYGYWGQGTQVTVSS test_readout="polyreactivity (PSR sort gate)" observed_measurement="high polyreactivity"
monomer_sequence=QVQLVESGGGLVQAGGSLRLSCAASGSTFSFNAMGWYRQAPGKERELVAAITGGDGTNYADSVKGRFTISRDNAKNTVYLQMNILKPEDTAVYYCAAYQWGSTEDYWFTYGYWGQGTQVTVSS test_readout="polyreactivity (PSR sort gate)" observed_measurement="low polyreactivity"
monomer_sequence=QVQLVESGGGLDQAGGSLRLSCAASGNIFYGNAMGWSRQAPGKERELVAGITSGGSTNYADSVKGRFTISRDTAKNTVYLQMTSLKPEDTAVYYCNATSSGSIFGYEYWGQGTQVTVSS test_readout="polyreactivity (PSR sort gate)" observed_measurement="low polyreactivity"
monomer_sequence=QVQLVESGGGLVQAGGSLRLSCAASGRTFGRYAMGWYRQAPGKERDLVATITSGGSTNYADSVKGRFTISRDNAKNTVYLQMNSLKPVDTAVYYCAAEFSPSRWAYSEGALRYNYWGHGTQVTVSS test_readout="polyreactivity (PSR sort gate)" observed_measurement="low polyreactivity"
monomer_sequence=QVQLVESGGGLVQAGGSLRLSCAASGFTFEGYAMGWYRQAPGKERELVAAISDNGGRTYYADSVKGRFTISRDNAKNTVYLQMHPLTPEETEVYYCNARPAYSGPDYDYYHGRRYDYWGQGTQVTVSS test_readout="polyreactivity (PSR sort gate)" observed_measurement="low polyreactivity"
